# System: Sindbis virus TE/5'2J-GFP
# PROTOCOL_TEXT: percent infected (GFP+ in RFP+ ISG-expressing cells); higher = more infection (less antiviral activity)
# RUN_CONDITIONS: experiment: confirmatory screen 1; BHK/NZAP-Zeo (ZAP)
Below, each entry is listed with its recorded percent infected.
MEASUREMENT_NAME: percent infected (%)

residue_codes="MKKSGVLFLLGIILLVLIGVQGTPVVRKGRCSCISTNQGTIHLQSLKDLKQFAPSPSCEKIEIIATLKNGVQTCLNPDSADVKELIKKWEKQVSQKKKQKNGKKHQKKKVLKVRKSQRSRQKKTT [CXCL9]" tgt="Sindbis virus TE/5'2J-GFP" measurement_name="percent infected" quantitative_result=44.7
residue_codes="MRSRLLLSVAHLPTIRETTEEMLLGGPGQEPPPSPSLDDYVRSISRLAQPTSVLDKATAQGQPRPPHRPAQACRKGRPAVSLRDITARFSGQQPTLPMADTVDPLDWLFGESQEKQPSQRDLPRRTGPSAGLWGPHRQMDSSKPMGAPRGRLCEARMPGHSLARPPQDGQQSSDLRSWTFGQSAQAMASRHRPRPSSVLRTLYSHLPVIHEL [C10orf10]" tgt="Sindbis virus TE/5'2J-GFP" measurement_name="percent infected" quantitative_result=63.9
residue_codes="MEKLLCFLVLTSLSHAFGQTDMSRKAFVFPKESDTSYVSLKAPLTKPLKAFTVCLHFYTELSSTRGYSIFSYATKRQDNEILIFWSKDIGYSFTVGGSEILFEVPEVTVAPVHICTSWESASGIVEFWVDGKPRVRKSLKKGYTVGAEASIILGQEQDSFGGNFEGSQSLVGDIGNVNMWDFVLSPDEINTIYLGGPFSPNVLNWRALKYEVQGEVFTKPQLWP [CRP]" tgt="Sindbis virus TE/5'2J-GFP" measurement_name="percent infected" quantitative_result=71.6
residue_codes="MAGIELERCQQQANEVTEIMRNNFGKVLERGVKLAELQQRSDQLLDMSSTFNKTTQNLAQKKCWENIRYRICVGLVVVGVLLIILIVLLVVFLPQSSDSSSAPRTQDAGIASGPGN [VAMP5]" tgt="Sindbis virus TE/5'2J-GFP" measurement_name="percent infected" quantitative_result=78.6

###

# Tested on: Sindbis virus TE/5'2J-GFP;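 note: Interferon-defective BHK-21 derivatives, ZAP line overexpressing the rat ZAP N-terminal zinc finger domain fused to Zeocin resistance, GFP scored within live singlet TagRFP+ cells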
# PROTOCOL_TEXT: percent infected (GFP+ in RFP+ ISG-expressing cells); higher = more infection (less antiviral activity)
# RUN_CONDITIONS: experiment: confirmatory screen 3; BHK/NZAP-Zeo (ZAP)
MEASUREMENT_NAME: percent infected (%)

residue_codes="MSIMDHSPTTGVVTVIVILIAIAALGALILGCWCYLRLQRISQSEDEESIVGDGETKEPFLLVQYSAKGPCVERKAKLMTPNGPEVHG [SNN]" tgt="Sindbis virus TE/5'2J-GFP" measurement_name="percent infected" units_text=% quantitative_result=92.9
residue_codes="MGAQLCFEANAKAPREALRFHAEAKGAQVRLDTRGCIAHRRTTFHDGIVFSQRPVRLGERVALRVLREESGWCGGLRVGFTRLDPACVSVPSLPPFLCPDLEEQSPTWAAVLPEGCALTGDLVRFWVDRRGCLFAKVNAGCRLLLREGVPVGAPLWAVMDVYGTTKAIELLDPTASRLPTPMPWDLSNKAVPEPKATPGEECAICFYHAANTRLVPCGHTYFCRYCAWRVFSDTAKCPVCRWQIEAVAPAQGPPALRVEEGS [LINCR]" tgt="Sindbis virus TE/5'2J-GFP" measurement_name="percent infected" units_text=% quantitative_result=93.3
residue_codes="MSLRGSLSRLLQTRVHSILKKSVHSVAVIGAPFSQGQKRKGVEHGPAAIREAGLMKRLSSLGCHLKDFGDLSFTPVPKDDLYNNLIVNPRSVGLANQELAEVVSRAVSDGYSCVTLGGDHSLAIGTISGHARHCPDLCVVWVDAHADINTPLTTSSGNLHGQPVSFLLRELQDKVPQLPGFSWIKPCISSASIVYIGLRDVDPPEHFILKNYDIQYFSMRDIDRLGIQKVMERTFDLLIGKRQRPIHLSFDIDAFDPTLAPATGTPVVGGLTYREGMYIAEEIHNTGLLSALDLVEVNPQLATSEEEAKTTANLAVDVIASSFGQTREGGHIVYDQLPTPSSPDESENQARVRI [ARG2]" tgt="Sindbis virus TE/5'2J-GFP" measurement_name="percent infected" units_text=% quantitative_result=93.5
